TEST SUMMARY: Primary fluorescence-based thiol-reactive (MSTI) qHTS assay for identification of artifact compounds. (AID 1845221); note: nearly all actives have a fitted effect of over 65% in size
CONDITION: MSTI thiol-reactivity probe, 1 h; series mostly up to 53.8 µM
Records with an inconclusive call do not appear. Activity calls are given as the source filed them. Calls come from the whole dose curve; as a rule, active = well fitted inhibition curve with a large enough effect; inconclusive = small, poorly fitted or top-dose-only effect; inactive = no such curve, though single readings can be large or run the other way.
I would appreciate it if you answered using one of these outcomes: class 1 for active, class 0 for inactive

COMPOUND: O=C(O)CCc1ccc(NCc2cccc3c2CCCN3CCOc2ccccc2)cc1F
ASSIGNED CLASS: class 1
//
COMPOUND: CC1=C2C[C@H]3OC(=O)[C@H](O)[C@@]4(O)[C@@H](C)[C@@H](O)[C@H](O)C([C@@]2(C)[C@H](O)[C@@H](O)C1)[C@@]34C (stereo partly drawn)
ASSIGNED CLASS: class 0
//
COMPOUND: C/C(=C\CCC(C)C1CC(O)C2(C)C3CCC4C(C)(C)C(OC5OCC(O)C(O)C5O)CCC45CC35CC(O)C12C)C(=O)O (stereo not drawn)
ASSIGNED CLASS: class 0
//
COMPOUND: CC1=C2CC(=O)C(C)CC/C=C(\C)CC2OC1=O (stereo not drawn)
ASSIGNED CLASS: class 0
//
COMPOUND: CSC(=O)OCC1=C[C@@H]2OC(=O)C3=CO[C@@H](O[C@@H]4O[C@H](CO)[C@@H](O)[C@H](O)[C@H]4O)[C@H]1[C@@H]32
ASSIGNED CLASS: class 1
//
COMPOUND: C=C1C(OC(C)=O)C(=O)C2C(C)(C)C(O)CCC2(C)C1CC(OC(C)=O)/C(C)=C/COC(C)=O (stereo not drawn)
ASSIGNED CLASS: class 0
//
COMPOUND: CC(C)N(CCCNC(=O)Nc1ccc(C(C)(C)C)cc1)C[C@H]1O[C@@H](n2ccc3c(N)ncnc32)[C@H](O)[C@@H]1O
ASSIGNED CLASS: class 0

Pending compound:
Status in this test for `COc1cccc(OC)c1-c1nc(C(=O)N[C@@H](CC(C)C)C(=O)O)cn1-c1ccnc2cc(Cl)ccc12` ?
class 0

###

ASSAYED TARGET: Glutathione peroxidase 1 (Homo sapiens) (UniProt P07203)
Sequence (P07203 whole entry, looked up): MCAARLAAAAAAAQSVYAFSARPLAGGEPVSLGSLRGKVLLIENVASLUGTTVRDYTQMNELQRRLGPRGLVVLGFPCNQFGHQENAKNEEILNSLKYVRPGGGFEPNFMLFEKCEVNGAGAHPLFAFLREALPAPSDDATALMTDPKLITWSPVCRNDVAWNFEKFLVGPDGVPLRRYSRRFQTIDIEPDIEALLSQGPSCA
TEST SUMMARY: Primary qHTS Assay for Inhibitors of Recombinant Selenoprotein Glutathione Peroxidase 1 (GPX1) (AID 1845191); note: nearly all actives have a fitted effect of over 65% in size
CONDITION: recombinant GPX1, GR-coupled NADPH fluorescence, 15 min; series mostly up to 27.7 µM
Inconclusive results are not listed. Activity calls are given as the source filed them. Calls follow the shape of the dose curve; as a rule, active = well fitted inhibition curve with a large enough effect; inconclusive = small, poorly fitted or top-dose-only effect; inactive = flat fitted curve, though single readings scatter. Where a SMILES comes first, the peptide text is derived from it. The star is where a group is joined. AMC = Cc1cc(=O)oc2cc(N*)ccc12; Cbz = O=C(OCc1ccccc1)*
I would appreciate it if you answered using one of these outcomes: active, inactive

Worked examples follow.
MOLECULE: C=C1C[C@]23C[C@@]1(O)CC[C@H]2[C@@]12C=C[C@H](O)[C@@](C)(C(=O)O1)[C@H]2[C@@H]3C(=O)O
ASSAYED TARGET: Glutathione peroxidase 1 (Homo sapiens) (UniProt P07203)
ASSIGNED CLASS: inactive
--
MOLECULE: OC[C@H]1O[C@@H](OC[C@H]2O[C@@H](OCc3ccccc3)[C@H](O)[C@@H](O)[C@@H]2O)[C@H](O)[C@@H](O)[C@@H]1O
ASSAYED TARGET: Glutathione peroxidase 1 (Homo sapiens) (UniProt P07203)
ASSIGNED CLASS: inactive

Status in this test for Cc1cc(=O)oc2cc(NC(=O)[C@H](CCC(=O)O)NC(=O)[C@H](CC(C)C)NC(=O)[C@H](CC(C)C)NC(=O)OCc3ccccc3)ccc12 (Cbz-Leu-Leu-Glu-{AMC}) ?
active
